Target: TplEi S215A (Pseudomonas aeruginosa) (UniProt Q9I3K3)
Assay: ITC

[
  {
    "entry_sequence": "A peptides (“L” peptide, TplE 82-108 plus EQVEVDD) (from UniProt Q9I3K2 82-115)",
    "readout_units": "µM",
    "Kd": 7.8
  }
]

The reported measurements were obtained from paper PMC5611513.
